System: PPARg DBDmut:RXRa IVT, anti-PPARg (DBD mutation: PPARg1 K132A/R137A, NR concentration 270 nM, RXRa partner concentration 90 nM)
Assay: PBM binding z-score (relative to random genomic background probes); higher = stronger binding; sequences stand for … in GC…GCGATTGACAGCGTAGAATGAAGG
measurement.label: PBM binding z-score
I only need the number, thanks.

Reference set (6 entries):
1) CCTCGGAGGACAGAAGGTCACAGCTGTCCGCTTT
-1.36
2) ATTACAGGGTCATCGTAGGCCAGAGTACGCACAG
2.06
3) ATCTCTACGTAAAGATAGTTCAGTGAATGCAAAT
0.317
4) CGAACTAGGTCAAGGACAGTGGATCTCCGCACGC
1.43
5) ATCTCTAGGTAACCAAGTTCAGTGGATGCCGAAC
0.893
6) GCGACTGGGGCATCAGCAGGTTACCATAACTTAA
0.296

Continue with the sequence presented below.
Name the recorded PBM binding z-score of the item "TCTAGTTGGTCAGGGAGGTCACACACGACGGGTA" in your answer.
0.418
